Form field: melting point (one value per entry).
Outcome Measure: melting point

1) Nc1ncc2cc(-c3c(Cl)ccc(Cl)c3Cl)c(N)nc2n1 ... 320 to 322 °C
2) O=C(O)C1Cc2c(c(Cl)cc3c(-c4cccc(Cl)c4)noc23)O1 (centres undefined) ... 168 to 169 °C
3) COc1cc2c(cc1Nc1ncc(Cl)c(Nc3ccccc3S(=O)(=O)N(C)C)n1)CCN(Cc1nccn1C)CC2 ... 79 to 86 °C
4) COc1ccc(S(=O)(=O)CC(CS(=O)(=O)c2ccc(OC)cc2)C(=O)O)cc1 ... 174 to 175 °C
5) CCOC(=O)N1C(NC(C)C)=NS(=O)(=O)c2c1cnn2C ... 141 to 145 °C
6) Cc1ccccc1Nc1nc(N(C)c2ccccc2)c2cccc(OCCCN(C)C)c2n1 ... 77 to 79 °C
7) COc1ccc(-n2cnc3ccc(-c4nnc(CCc5cccc(F)c5)o4)cc32)cc1 ... 145 to 147 °C
8) Nc1ncc(-c2ccccc2)c(N)n1 ... 162 to 164 °C
9) CCCCCCCNC(=O)Nc1ccccc1C(=O)N1CCCN(C(c2ccccc2)c2ccccc2)CC1 ... 125 °C

###

Outcome Measure: melting point

1) CCN(CC)C(=O)Oc1nc(-c2ccc(C)cc2)cc2ccccc12 ... 98 °C
2) Cn1cc(N2C=CN=CC2)ccc1=O ... 166 °C
3) O=C1CCC(N2Cc3cc(CNC(=O)Nc4cc(Cl)ccc4Cl)ccc3C2=O)C(=O)N1 (stereo unspecified) ... 269 to 271 °C
4) CCC(C(C)=CC(CNC(=O)c1c[nH]cn1)=NO)[N+](=O)[O-] (stereo unspecified) ... 157 to 158 °C
5) COc1ccc(C(=O)NCCCCOc2ccc(-n3ccnc3)cc2)cc1 ... 125 to 126 °C
6) NC1C(=O)Nc2ccccc2SC1Cc1ccccc1 (stereo unspecified) ... 223 to 224 °C
7) CCC/C(=C\C#N)c1ccc2c(c1)C(CC)(CC)OC(=O)N2 ... 121 to 124 °C
8) O=c1n(Cc2ccc([N+](=O)[O-])cc2)c2ccccc2n1Cc1ccc(C(F)(F)F)cc1 ... 134 to 137 °C
9) C[C@H](OC(=O)c1ccccc1)[C@@H](O)[C@@H](CO)OCc1ccccc1Cl ... 80 to 83 °C
10) CCCCCn1c2ccc(C(=O)O)cc2c2ccc(SC)cc21 ... 211 to 212 °C
11) COc1ccc(CCS(=O)(=O)CC2CCC2)cc1 ... 52 °C

###

Entries annotated with measured melting point
Outcome Measure: melting point

1. COc1cc(Cl)c2c(c1)C=C(C(=O)O)C(C(F)(F)F)O2 (stereo unspecified) ... 204 to 207 °C
2. Clc1nc2ccccc2n2cnc(-c3nc(C4CC4)no3)c12 ... 166 to 168 °C
3. Oc1ccc2c(c1)C(C(Cl)(Cl)Cl)OC(C(Cl)(Cl)Cl)O2 (stereo unspecified) ... 167 to 169 °C
4. O=[N+]([O-])c1cccc(P(=O)(O)O)c1 ... 148 to 155 °C
5. Cc1ncoc1C(C)(O)c1ccccc1C(F)(F)F (stereo unspecified) ... 108 to 109 °C
6. Cc1c(-c2ccccc2)oc2c(S(=O)(=O)CCCCl)cccc2c1=O ... 160 to 163 °C
7. Cc1cc(C)c2cc(-c3ccccc3)c(=O)[nH]c2n1 ... 258 to 260 °C
8. O=C1NC(=O)C2(c3ccc4ncccc4n3)C=CC=CC12 (stereo unspecified) ... 206 °C
9. Cc1cccc(OCC(O)CN2C(=O)C3CCCN3c3ncccc32)c1C (stereo unspecified) ... 123 to 125 °C
10. CCOC(=O)/C=C/c1ccccc1C1C(C(=O)OCC)=C(C)NC(C)=C1C(=O)OCC ... 130 to 131 °C
11. CC(C)C(=O)Nc1cccn1C ... 122 to 124 °C
